Reported log10 of IC50 values for the following binders.
Target: T1, human GIPR (human), P48546
T1 chain: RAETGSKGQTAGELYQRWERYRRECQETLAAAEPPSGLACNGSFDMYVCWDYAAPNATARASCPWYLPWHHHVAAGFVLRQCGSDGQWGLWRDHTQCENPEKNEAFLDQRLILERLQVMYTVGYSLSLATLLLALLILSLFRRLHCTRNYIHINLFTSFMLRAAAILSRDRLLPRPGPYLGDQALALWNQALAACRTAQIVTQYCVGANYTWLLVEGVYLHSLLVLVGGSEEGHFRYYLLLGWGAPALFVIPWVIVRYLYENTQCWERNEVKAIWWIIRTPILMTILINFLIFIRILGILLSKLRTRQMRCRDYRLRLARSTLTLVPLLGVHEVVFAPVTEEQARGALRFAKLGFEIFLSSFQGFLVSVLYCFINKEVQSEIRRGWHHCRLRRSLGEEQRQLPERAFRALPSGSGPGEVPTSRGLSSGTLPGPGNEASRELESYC
Test: [125I]GIP displacement, hGIPR VLP
Non-standard residues stand in square brackets, D forms with d. Groups on a side chain read outwards from the residue. Primed or numbered codes have the meaning given here. No end group written: not given here. *: point of attachment. C20 diacid = O=C(O)CCCCCCCCCCCCCCCCCCC(=O)*; NMeY = CN[C@@H](Cc1ccc(O)cc1)C(=O)O; Stearoyl = CCCCCCCCCCCCCCCCCC(=O)*; αMeF = C[C@](N)(Cc1ccccc1)C(=O)O; Lauroyl = CCCCCCCCCCCC(=O)*; dIva = CC[C@@](C)(N)C(=O)O; PEG2′ = not defined here; Aib = CC(C)(N)C(=O)O
Measurement Type: log10 of IC50 (log10 of the value in nM)

Binder	Data Value
Y[Aib]EGTVVSLYSK(Pal)[Aib]LDKQAQ[Aib]EFVKWLLAQK (ends and bridges not checked) [Compound 159]	0.91
Y[Aib]EGTFISDYSK([PEG(2)-Lauroyl])ALDRIAQQDFVNWLLAQRPSSGAPPPS (ends and bridges not checked) [Compound 191]	0.43
Y[Aib]EGTFISDYSIALDRK([PEG(2)-C20 diacid])HQQDFVNWLLAQRPSSGAPPPS (not fully specified (C-terminus); ends and bridges not checked) [Compound 234]	1.91
Y[Aib]EGTFISDYSK([PEG2′-Stearoyl])ALDRIHQQDFVNWLLAQRPSSGAPPPSR (ends and bridges not checked) [Compound 181]	0.41
Y[Aib]EGTFISDYSK([PEG(2)-Lauroyl])[dIva]LDRIAQQDFVNWLLAQRPSSGAPPPSR (ends and bridges not checked) [Compound 199]	0.38
[NMeY][Aib]EGTFISDYSIALDR[Aib]AQQSFVNWLLAQRPSSGAPPPSR (not fully specified (N-terminus, C-terminus); ends and bridges not checked) [Compound 137]	-0.01
Y[Aib]EGTFISDYSK([PEG(2)-Stearoyl])ALDRIHQQDFVNWLLAQRPSSGAPPPS (ends and bridges not checked) [Compound 176]	0.53
Y[Aib]EGTFISDYSK([PEG2′-Lauroyl])ALDRIHQQDFVNWLLAQRPSSGAPPPSR (ends and bridges not checked) [Compound 180]	0.08
Y[Aib]EGTFISDYSK([PEG(2)-Lauroyl])ALDRIAQQD[αMeF]VNWLLAQRPSSGAPPPSR (ends and bridges not checked) [Compound 195]	0.36
